# SYSTEM TESTED: human F508del CFTR (Homo sapiens, UniProt P13569, DEL508-508)
# Construct: expressed in transfected cells; host or cells: Fisher Rat Thyroid (FRT) cells
# Sequence (P13569 with tags, fused parts or gaps DEL508-508): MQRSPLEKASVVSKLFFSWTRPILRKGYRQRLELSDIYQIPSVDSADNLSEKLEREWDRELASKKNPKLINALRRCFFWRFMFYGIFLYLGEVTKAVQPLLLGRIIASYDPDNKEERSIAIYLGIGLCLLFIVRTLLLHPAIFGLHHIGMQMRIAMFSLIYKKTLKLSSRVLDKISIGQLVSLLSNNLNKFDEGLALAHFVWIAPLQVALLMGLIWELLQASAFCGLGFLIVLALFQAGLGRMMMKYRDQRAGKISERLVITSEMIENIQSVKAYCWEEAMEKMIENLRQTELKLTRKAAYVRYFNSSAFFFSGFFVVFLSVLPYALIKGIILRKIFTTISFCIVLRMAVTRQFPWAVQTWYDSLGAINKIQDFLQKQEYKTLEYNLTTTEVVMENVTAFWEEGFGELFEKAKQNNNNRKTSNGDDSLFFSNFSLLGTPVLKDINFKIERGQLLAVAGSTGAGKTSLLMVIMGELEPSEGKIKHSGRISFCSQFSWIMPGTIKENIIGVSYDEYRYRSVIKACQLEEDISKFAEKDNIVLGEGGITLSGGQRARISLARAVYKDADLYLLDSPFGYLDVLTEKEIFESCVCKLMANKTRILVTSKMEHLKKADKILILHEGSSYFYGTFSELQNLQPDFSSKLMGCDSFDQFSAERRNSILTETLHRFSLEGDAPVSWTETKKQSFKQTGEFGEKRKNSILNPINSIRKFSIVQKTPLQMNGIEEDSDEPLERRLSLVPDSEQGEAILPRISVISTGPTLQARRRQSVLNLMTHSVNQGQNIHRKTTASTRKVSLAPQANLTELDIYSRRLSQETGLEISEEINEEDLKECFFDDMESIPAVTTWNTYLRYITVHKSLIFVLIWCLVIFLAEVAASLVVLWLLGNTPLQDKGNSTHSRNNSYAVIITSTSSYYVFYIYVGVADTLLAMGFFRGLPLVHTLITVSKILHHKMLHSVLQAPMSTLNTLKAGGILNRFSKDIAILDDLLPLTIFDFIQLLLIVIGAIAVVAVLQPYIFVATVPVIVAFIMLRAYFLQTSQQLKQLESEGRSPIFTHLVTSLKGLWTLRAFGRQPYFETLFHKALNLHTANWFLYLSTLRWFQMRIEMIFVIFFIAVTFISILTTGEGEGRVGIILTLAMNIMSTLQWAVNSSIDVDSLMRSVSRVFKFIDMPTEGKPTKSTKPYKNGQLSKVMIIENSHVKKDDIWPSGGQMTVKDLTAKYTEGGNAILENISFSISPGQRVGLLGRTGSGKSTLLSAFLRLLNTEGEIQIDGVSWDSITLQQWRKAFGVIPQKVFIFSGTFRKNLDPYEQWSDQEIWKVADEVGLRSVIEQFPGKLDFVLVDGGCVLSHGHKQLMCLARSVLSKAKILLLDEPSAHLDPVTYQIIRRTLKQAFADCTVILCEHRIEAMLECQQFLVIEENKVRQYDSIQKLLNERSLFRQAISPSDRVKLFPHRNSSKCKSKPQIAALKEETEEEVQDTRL
# ASSAY: CFTR-YFP High Throughput Assay
# Type: cell-based
# CONDITION PARAMETERS: EMax normalized to the positive control; FRT cells expressing human F508del CFTR and YFP; read-out: % Efficacy
Reported Emax values for the following compounds.

Recorded Emax, per entry:
{"columns": ["MOL SMILES", "VALUE MEASURED"],
 "data": [
  ["[2H]C([2H])([2H])N(C(=O)Cn1nc(-c2cccc(C#N)c2)c2ccc(OC)cc2c1=O)c1ccc2nc(C)oc2c1", "> 80%"],
  ["COc1ccc2c(-c3cccc(C#N)c3)nn(CC(=O)N(C)c3ccc4nc(C)oc4c3)c(=O)c2c1", "> 80%"],
  ["CCN(C(=O)c1nn(-c2ncccn2)c(=O)c2c1c1ccccc1n2C)c1ccccc1", "10 to 30%"]
]}

Could you now look at the following compound, please?
Note to self: Emax recorded for `CCN(C(=O)c1nn(-c2ccc(C)cc2)c(=O)c2c1c1cc(Cl)ccc1n2C)c1ccccc1` was 30 to 80%

----------
# SYSTEM TESTED: human F508del CFTR (Homo sapiens, UniProt P13569, DEL508-508)
# Construct: expressed in transfected cells; host or cells: Fisher Rat Thyroid (FRT) cells
# ASSAY: CFTR-YFP High Throughput Assay
# Type: cell-based
# CONDITION PARAMETERS: EMax normalized to the positive control; FRT cells expressing human F508del CFTR and YFP; read-out: % Efficacy
REPORTED ENDPOINT: Emax

{"columns": ["COMPOUND", "VALUE MEASURED"],
 "data": [
  ["CCN(C(=O)c1nn(C2CCN(C)CC2)c(=O)c2c1c1ccccc1n2C)c1ccccc1 [Example 199]", "10 to 30%"],
  ["CCN(C(=O)Cn1nc(-c2cccnc2)c2ccccc2c1=O)c1ccc2c(c1)OC(F)(F)O2 [Example 24]", "30 to 80%"],
  ["COc1ccc2c(-c3cccc(C#N)c3)nn(CC(=O)N(c3ccc4c(c3)OC(F)(F)O4)C3CC3)c(=O)c2c1 [Example 79]", "> 80%"]
]}

Note to self: Emax recorded for CCc1ccc(N(CC)C(=O)Cn2nc(-c3cccnc3)c3ccccc3c2=O)cc1 [Example 3] was 30 to 80%

Note to self: Emax recorded for CCN(C(=O)Cn1nc(-c2cccc(C#N)c2)c2ccc(OC)cc2c1=O)c1ccc2nc(C)oc2c1 [Example 81] was > 80%

Note to self: Emax recorded for COc1ccc2c(c1)c1c(=O)n(CC(=O)N(C)c3ccc4nc(C)oc4c3)ncc1n2Cc1ccc(C#N)cc1 [Example 259] was > 80%

Note to self: Emax recorded for CCN(C(=O)Cn1ncc2c(c1=O)c1ccccc1n2Cc1ccc(C#N)cc1)c1ccc2c(c1)OC(F)(F)O2 [Example 144] was > 80%

----------
# SYSTEM TESTED: human F508del CFTR (Homo sapiens, UniProt P13569, DEL508-508)
# Construct: expressed in transfected cells; host or cells: Fisher Rat Thyroid (FRT) cells
# ASSAY: CFTR-YFP High Throughput Assay
# Format: cell-based
# CONDITION PARAMETERS: EMax normalized to the positive control; FRT cells expressing human F508del CFTR and YFP; read-out: % Efficacy
REPORTED ENDPOINT: Emax

Recorded Emax, per entry:
{"columns": ["MOLECULE", "Emax"],
 "data": [
  ["Cc1nc2ccc(N(C)C(=O)Cn3ncc4c(c3=O)c3ccccc3n4Cc3ccc(C#N)cc3)cc2o1", "30 to 80%"],
  ["CCc1ccc(N(CC)C(=O)Cn2nc(C(=O)N(CC)c3cccc(Cl)c3)c3c4ccccc4n(C)c3c2=O)cc1", "30 to 80%"],
  ["CCN(C(=O)Cn1nc(-c2ccc(S(N)(=O)=O)cc2)c2ccc(OC)cc2c1=O)c1ccc2nc(C)oc2c1", "30 to 80%"],
  ["CCc1ccc(N(CC)C(=O)Cn2nc(Cc3cccnc3)c3cccc(F)c3c2=O)cc1", "30 to 80%"],
  ["CCc1ccc(N(CC)C(=O)Cn2nc(Cc3cccnc3)c3cc(OC)ccc3c2=O)cc1", "30 to 80%"],
  ["CCc1ccc(N(CC)C(=O)Cn2nc(Cc3cccnc3)c3ccc(Cl)cc3c2=O)cc1", "30 to 80%"]
]}

Could you now look at the following molecule, please?
Note to self: Emax recorded for `CCN(C(=O)Cn1nc(-c2ccc(C(N)=O)cc2)c2ccccc2c1=O)c1ccc2c(c1)OC(F)(F)O2` was > 80%

----------
# SYSTEM TESTED: human F508del CFTR (Homo sapiens, UniProt P13569, DEL508-508)
# ASSAY: CFTR-YFP High Throughput Assay
# CONDITION PARAMETERS: FRT cells expressing human F508del CFTR and YFP
pEC50: −log10 of the molar value.
Reported pEC50 values for the following compounds.

Recorded pEC50, per entry:
{"columns": ["MOL SMILES", "pEC50"],
 "data": [
  ["CCN(C(=O)c1nn(-c2ccc(C)cc2)c(=O)c2c1c1ccc(OC)cc1n2C)c1ccccc1", "< 4.70"],
  ["CCN(C(=O)c1nn(-c2ccc(OC)c(Cl)c2)c(=O)c2c1c1ccccc1n2C)c1ccccn1", "> 5.00"],
  ["Cc1nc2ccc(N(C)C(=O)Cn3nc(-c4cccc(Cl)c4)c4ccc(OCc5ccccc5)cc4c3=O)cc2o1", "> 5.00"]
]}

Could you now look at the following compound, please?
Note to self: pEC50 recorded for `CCc1ccc(N(CC)C(=O)Cn2nc(Cc3cccnc3)c3cc(Cl)c(Cl)cc3c2=O)cc1` was > 5.00

----------
# SYSTEM TESTED: human F508del CFTR (Homo sapiens, UniProt P13569, DEL508-508)
# ASSAY: CFTR-YFP High Throughput Assay
# CONDITION PARAMETERS: FRT cells expressing human F508del CFTR and YFP
Reported EC50 values for the following molecules.

Note to self: EC50 recorded for `CCc1ccc(N(CC)C(=O)Cn2nc(C(=O)Nc3cc(Cl)ccc3C#N)c3ccccc3c2=O)cc1` was 10 to 20 µM

Note to self: EC50 recorded for `CCN(C(=O)Cn1ncc2c(c1=O)c1ccccc1n2Cc1cccc(OC)c1)c1ccc2c(c1)OC(F)(F)O2` was < 10 µM

Note to self: EC50 recorded for `CCOC(=O)c1ccc2c(=O)n(CC(=O)N(C)c3ccc4nc(C)oc4c3)nc(-c3cccc(F)c3)c2c1` was < 10 µM

Note to self: EC50 recorded for `CCN(C(=O)Cn1nc(-c2cccc(C#N)c2)c2ccc(OC)cc2c1=O)c1ccc2nc(C)oc2c1` was < 10 µM

Note to self: EC50 recorded for `CCN(C(=O)c1nn(-c2ccc(C(F)(F)F)cn2)c(=O)c2c1c1ccccc1n2C)c1ccccc1` was < 10 µM

Note to self: EC50 recorded for `CCc1ccc(N(CC)C(=O)Cn2nc(Cc3cccnc3)c3ncccc3c2=O)cc1` was > 20 µM

Note to self: EC50 recorded for `CCN(C(=O)Cn1nc(-c2ccc(C(N)=O)cc2)c2ccccc2c1=O)c1ccc2c(c1)OC(F)(F)O2` was 10 to 20 µM

----------
# SYSTEM TESTED: human F508del CFTR (Homo sapiens, UniProt P13569, DEL508-508)
# Construct: expressed in transfected cells; host or cells: Fisher Rat Thyroid (FRT) cells
# ASSAY: CFTR-YFP High Throughput Assay
# Type: cell-based
# CONDITION PARAMETERS: EMax normalized to the positive control; FRT cells expressing human F508del CFTR and YFP; read-out: % Efficacy
Reported Emax values for the following compounds.

{"columns": ["MOL SMILES", "Emax"],
 "data": [
  ["CCN(C(=O)Cn1nc(Cc2cccnc2)c2ccc(C)cc2c1=O)c1ccc2c(c1)OC(F)(F)O2", "> 80%"],
  ["CCN(C(=O)c1nn(-c2cnc3ccccc3c2)c(=O)c2c1c1ccccc1n2C)c1ccccc1", "30 to 80%"],
  ["CCc1ccc(N(CC)C(=O)Cn2nc(-c3ccccc3)c3ccccc3c2=O)cc1", "10 to 30%"]
]}

Observed Emax on human F508del CFTR (Homo sapiens, UniProt P13569, DEL508-508), entry `CCN(C(=O)c1nn(-c2ccc(C)cc2)c(=O)c2c1c1ccc(Cl)cc1n2C)c1ccccc1` , equals 30 to 80%

Observed Emax on human F508del CFTR (Homo sapiens, UniProt P13569, DEL508-508), entry `CCN(CC)C(=O)c1nn(CC(=O)N(CC)c2ccc3c(c2)OC(F)(F)O3)c(=O)c2c1c1ccccc1n2C` , equals 30 to 80%

Observed Emax on human F508del CFTR (Homo sapiens, UniProt P13569, DEL508-508), entry `COc1ccc2c(-c3ccc(S(N)(=O)=O)cc3)nn(CC(=O)N(c3ccc4c(c3)OC(F)(F)O4)C3CC3)c(=O)c2c1` , equals 30 to 80%

Observed Emax on human F508del CFTR (Homo sapiens, UniProt P13569, DEL508-508), entry `CCN(C(=O)c1nn(C2CCOCC2)c(=O)c2c1c1ccccc1n2C)c1ccccc1` , equals 30 to 80%
